measured_target: Intestinal-type alkaline phosphatase (Mus musculus)
Sequence (P24822 whole entry, looked up): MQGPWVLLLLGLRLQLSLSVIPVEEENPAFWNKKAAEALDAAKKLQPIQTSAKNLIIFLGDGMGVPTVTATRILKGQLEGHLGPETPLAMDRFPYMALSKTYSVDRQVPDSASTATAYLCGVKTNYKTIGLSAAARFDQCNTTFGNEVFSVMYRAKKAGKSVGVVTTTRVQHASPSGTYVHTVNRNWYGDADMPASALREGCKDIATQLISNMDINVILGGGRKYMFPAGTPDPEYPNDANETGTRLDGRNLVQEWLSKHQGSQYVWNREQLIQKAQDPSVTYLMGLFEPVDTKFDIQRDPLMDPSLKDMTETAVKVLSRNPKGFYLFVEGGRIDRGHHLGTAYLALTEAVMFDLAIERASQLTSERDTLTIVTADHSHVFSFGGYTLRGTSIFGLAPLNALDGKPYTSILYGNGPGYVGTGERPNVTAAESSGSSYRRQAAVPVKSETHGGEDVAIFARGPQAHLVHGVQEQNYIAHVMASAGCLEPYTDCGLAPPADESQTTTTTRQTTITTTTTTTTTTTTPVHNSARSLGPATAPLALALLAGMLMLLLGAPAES
assay_protocol: PubChem AID 488785
measurement_kind: IC50 (µM)
Provide the reading as a plain figure in µM.

compound=Cc1ccc(Cl)c2c1NC(=O)/C2=C1/NC(=S)NC1=O test_value=0.206

--- query ---
What IC50 value was documented for this compound, O=C1C=CC(C=NNC(=S)Nc2ccccc2[N+](=O)[O-])C=C1O (stereo not drawn) ? 0.216

====

measured_target: Intestinal-type alkaline phosphatase (Mus musculus)
assay_protocol: PubChem AID 488785
pIC50: −log10 of the molar value.
Label MET for high-side pIC50 (at or above 6) and NOT MET for low-side pIC50 (below it).

Take a look at these entries with their results.
molecule=COc1cc(C=Nn2c(O)csc2=S)ccc1O assigned_category="NOT MET"
molecule=O=C(Nn1c(O)csc1=S)C(=O)Nn1c(O)csc1=S assigned_category="NOT MET"

Is the recorded value of pIC50 equal to or greater than 6 for this molecule? NS(=O)(=O)c1cc(C(=O)NNC2=c3ccccc3=NC2=O)ccc1Cl NOT MET

And the next one, Nc1nnc(CC(=O)N/N=C/C2C=C([N+](=O)[O-])C=C(Br)C2=O)s1 (stereo not drawn) ? NOT MET

And the next one, C#CCOCCOCCOCCNc1nc(N2CCN(C(=O)CCCCCCCCCCNC(=O)[C@H]([C@@H](C)CC)n3cc(CCCCN=C(N)N)nn3)CC2)nc(N2CCN(C(=O)CCCCCCCCCCNC(=O)[C@@H]([C@H](C)O)n3cc(C)nn3)CC2)n1 ? MET

And the next one, C#CCOCCOCCOCCNc1nc(N2CCN(C(=O)CCCCCCCCCCNC(=O)[C@@H](CCC(=O)O)n3cc(CCCCCN)nn3)CC2)nc(N2CCN(C(=O)CCCCCCCCCCNC(=O)[C@H]([C@@H](C)CC)n3cc(CCCCCN)nn3)CC2)n1 ? NOT MET

====

measured_target: Intestinal-type alkaline phosphatase (Mus musculus)
assay_protocol: PubChem AID 488785
Recorded pIC50 by entry
The value called pIC50 is obtained by taking minus log10 of the concentration in mol/L.

Observe how each entry below is paired with its result.
compound=COc1cc(C=CC(=O)CC(=O)C=Cc2ccc(O)cc2)ccc1O measured_target="Intestinal-type alkaline phosphatase (Mus musculus)" test_value=5.08
compound="CC1NON=C1C(=O)NN=CC1=CC(=O)C(=O)C=C1 (stereo unspecified)" measured_target="Intestinal-type alkaline phosphatase (Mus musculus)" test_value=5.00
compound=C#CCOCCOCCOCCNc1nc(N2CCN(C(=O)CCCCCCCCCCNC(=O)Cn3cc(CCCCCN)nn3)CC2)nc(N2CCN(C(=O)CCCCCCCCCCNC(=O)Cn3cc(C[C@@H](C)O)nn3)CC2)n1 measured_target="Intestinal-type alkaline phosphatase (Mus musculus)" test_value=5.20
compound="Cc1ccc(/C=C2\\SC(=S)N(/N=C/C3C=C([N+](=O)[O-])C=CC3=O)C2=O)o1 (stereo unspecified)" measured_target="Intestinal-type alkaline phosphatase (Mus musculus)" test_value=4.21
compound=Oc1ccc(C=Nn2c(O)csc2=S)c(O)c1O measured_target="Intestinal-type alkaline phosphatase (Mus musculus)" test_value=5.38

--- query ---
What pIC50 value was documented for this compound, C#CCOCCOCCOCCNc1nc(N2CCN(C(=O)CCCCCCCCCCNC(=O)[C@@H](CCSC)n3cc(CCO)nn3)CC2)nc(N2CCN(C(=O)CCCCCCCCCCNC(=O)[C@H]([C@@H](C)CC)n3cc(CCCCCN)nn3)CC2)n1 ? 5.23
